Overview of reported activation across a group of molecules:
# SYSTEM_TESTED: Probable G-protein coupled receptor 32 (Homo sapiens) (UniProt O75388)
# Sequence (O75388 whole entry, looked up): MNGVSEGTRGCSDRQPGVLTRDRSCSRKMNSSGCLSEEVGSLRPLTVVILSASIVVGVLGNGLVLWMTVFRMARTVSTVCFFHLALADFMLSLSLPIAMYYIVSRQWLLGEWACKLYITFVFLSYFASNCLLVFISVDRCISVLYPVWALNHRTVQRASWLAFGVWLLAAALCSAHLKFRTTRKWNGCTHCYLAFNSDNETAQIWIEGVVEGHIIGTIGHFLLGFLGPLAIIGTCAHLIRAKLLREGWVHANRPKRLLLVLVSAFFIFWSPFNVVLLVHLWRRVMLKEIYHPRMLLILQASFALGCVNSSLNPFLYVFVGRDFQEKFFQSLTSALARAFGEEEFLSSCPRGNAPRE
# ASSAY_COMMENT: qHTS for Agonists of Human Resolvin D1 Receptor DRV1; also: 0% is about no effect
# CONDITION_DETAILS: CHO-K1 GPR32 beta-arrestin PathHunter luminescence, 90 min; at 76.9 µM; active compounds read high; zero percent set by DMSO-only wells
Among all 48,000 compounds or so, about 1,200 (2.5%) were called active. About 2% were inconclusive and are not listed. This excerpt belongs to a sample that is enriched for actives.

MOLECULE | activation
Cn1c(=O)sc2cc(NS(=O)(=O)c3ccc(C(C)(C)C)cc3)ccc21 | -13.3% (inactive)
COc1ccc(NC(=O)Cn2c(=O)cc(C)c3c(C)nn(-c4cccc(Cl)c4C)c32)cc1OC | -11.5% (inactive)
CCCCNC(=O)c1cc(-c2ccc(Cl)c(Cl)c2)on1 | 8.61% (inactive)
O=C(Nc1nc2c(s1)CCCC2)c1ccccc1F | -7.97% (inactive)
CCCS(=O)(=O)N1CCC(n2c(C(F)(F)F)nc3cccnc32)CC1 | -3.95% (inactive)
Cc1ccc(-c2cnc(NCc3ccc(C(C)C)cc3)n2C)cc1 | -44.5% (inactive)
Cn1c(=O)c2c(SCC(=O)NCC3CCCO3)nc(-c3ccccc3F)nc2n(C)c1=O (stereo not given) | -4.7% (inactive)
COc1ccccc1CNc1nccn(-c2ccc(F)cc2)c1=O | 30.2% (inactive)
COc1ccc2cc(-c3nc(Cl)c4c5c(sc4n3)CC(C)CC5)c(=O)oc2c1 (stereo not given) | -14.3% (inactive)
Cc1ccc(-n2c(=O)c3cccnc3n2CC(=O)Nc2ccccc2C(F)(F)F)cc1C | -16.8% (inactive)
